- measured-on: E. coli PanK (CoAA) (Escherichia coli)
- assay-explanation: Kinetic assay of pantetheine analogs as substrates of PanK
- Type: biochemical
endpoint-label: substrate suitability for CoAA/PanK (in words)

- molecule: "CC(C)(CO)[C@@H](O)C(=O)NCCOCCOCCNC(=O)CCN=[N+]=[N-]"
  observed: "viable substrates"
- molecule: "CN(C)c1ccc2c(CC(=O)NCCOCCOCCNC(=O)[C@H](O)C(C)(C)CO)cc(=O)oc2c1"
  observed: "viable substrates"

---

- measured-on: E. coli PanK (CoAA) (Escherichia coli)
- Sequence (P0A6I3 1-316): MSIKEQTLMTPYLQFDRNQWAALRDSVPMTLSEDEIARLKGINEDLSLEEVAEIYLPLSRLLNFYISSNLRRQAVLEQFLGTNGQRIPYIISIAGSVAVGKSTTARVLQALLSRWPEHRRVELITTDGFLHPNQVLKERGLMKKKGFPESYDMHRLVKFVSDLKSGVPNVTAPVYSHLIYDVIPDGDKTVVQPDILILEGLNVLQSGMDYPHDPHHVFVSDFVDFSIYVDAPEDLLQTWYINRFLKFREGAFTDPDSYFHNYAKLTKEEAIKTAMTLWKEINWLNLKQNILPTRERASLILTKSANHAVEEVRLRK
- assay-explanation: Kinetic assay of pantetheine analogs as substrates of PanK
- Assay type: biochemical
- condition-notes: compound as substrate of E. coli PanK
Rule: measured Km below 30 µM gets y; anything equal to or greater than 30 µM gets n.

- compound: "CN(C)c1ccc2c(CC(=O)NCCOCCCNC(=O)[C@H](O)C(C)(C)CO)cc(=O)oc2c1 [Compound 16]"
  label: "y"
- compound: "CN(C)c1ccc2c(CC(=O)NCCCCCCNC(=O)CCNC(=O)[C@H](O)C(C)(C)CO)cc(=O)oc2c1 [Compound 13]"
  label: "y"

Please indicate whether the reported Km of CC(C)(CO)[C@@H](O)C(=O)NCCC(=O)NCCN=[N+]=[N-] [Compound 3] is strictly below 30 µM.
n

Just wondering, is Km of CC(C)(CO)[C@@H](O)C(=O)NCCC(=O)NCCNC(=O)CCN=[N+]=[N-] [Compound 5] below 30 µM?
n

Is 30 µM strictly greater than the compound's reported Km? compound: CC(=O)CCC(=O)NCCNC(=O)CCNC(=O)[C@H](O)C(C)(C)CO [Compound 4]
n

---

- measured-on: E. coli PanK (CoAA) (Escherichia coli, UniProt P0A6I3)
- assay-explanation: Kinetic assay of pantetheine analogs as substrates of PanK
- Assay type: biochemical
- condition-notes: compound as substrate of E. coli PanK
endpoint-label: Km

Some compounds with known Km results, for comparison:
- molecule: "CN(C)c1ccc2c(CC(=O)NCCNC(=O)[C@H](O)C(C)(C)CO)cc(=O)oc2c1"
  Km: "37.2 µM"
- molecule: "CN(C)c1ccc2c(CC(=O)NCCOCCOCCNC(=O)[C@H](O)C(C)(C)CO)cc(=O)oc2c1"
  Km: "51.2 µM"

The record that follows has no Km shown yet.
// fetch Km for "CN(C)c1ccc2c(CC(=O)NCCCOCCNC(=O)[C@H](O)C(C)(C)CO)cc(=O)oc2c1" ; system: E. coli PanK (CoAA) (Escherichia coli, UniProt P0A6I3)
0.76 µM
